Counter-ions that a name gives are not always drawn.
Below is a list of entries, each paired with its recorded melting point value.

Query block: Any idea what its melting point is? The molecule is Cc1cccc(F)c1C1CCN(C(=O)c2cccc(N3CCN(C)CC3)n2)CC1 (as salt: hydrochloride)
Result block: 163 to 164.7 °C

Query block: Same thing, different molecule: Cc1ccc(C2CCCCN2C(=O)c2cccc(N3CCCNCC3)n2)cc1 (stereo not shown)
Result block: 147.9 to 148.5 °C

Query block: Same thing, different molecule: Cc1cccc(O[C@H]2CCCN(C(=O)c3cccc(N4CCN(C)CC4)n3)C2)c1
Result block: 73 to 75 °C

Query block: Same thing, different molecule: O=C(c1cccc(N2CCCNCC2)n1)N1CCCCC1c1ccccc1F (stereo not shown)
Result block: 183.4 to 184 °C

Query block: Same thing, different molecule: Cc1cccc([C@H]2CCCCN2C(=O)c2cccc(N3CCN(C)CC3)n2)c1
Result block: 142 to 142.5 °C

Query block: Same thing, different molecule: Cc1ccccc1C1CCN(S(=O)(=O)c2cccc(N3CCN(C)CC3)n2)CC1 (as salt: hydrochloride)
Result block: 203 to 204.5 °C

Query block: Same thing, different molecule: CN1CCC(c2cccc(C(=O)N3CCC(Oc4cccc(F)c4)CC3)n2)C1 (stereo not shown) (as salt: hydrochloride)
Result block: 85 to 86 °C

Query block: Same thing, different molecule: CN1CCCN(c2cccc(C(=O)N3CC[C@H](Oc4ccccc4Cl)C3)n2)CC1
Result block: 90 to 92 °C

Query block: Same thing, different molecule: Cc1ccccc1O[C@@H]1CCN(C(=O)c2cccc(N3CCCN(C)CC3)n2)C1 (as salt: hydrochloride)
Result block: 94 to 96 °C

Query block: Same thing, different molecule: CN1CCN(c2cccc(C(=O)N3CCCC[C@H]3c3ccccc3F)n2)CC1
Result block: 111.7 to 112.2 °C

Query block: Same thing, different molecule: CN1CCCN(c2cccc(C(=O)N3CC[C@@H](Oc4ccccc4F)C3)n2)CC1 (as salt: hydrochloride)
Result block: 106 to 108 °C

Query block: Same thing, different molecule: O=C(c1cccc(N2CCCNCC2)n1)N1CC[C@H](Oc2ccc(F)cc2)C1
Result block: 72 to 74 °C

Query block: Same thing, different molecule: CN1CCN(c2cccc(C(=O)N3CCC[C@H](Oc4cccc(F)c4)C3)n2)CC1
Result block: 84 to 86 °C

Query block: Same thing, different molecule: Cc1ccccc1O[C@H]1CCN(C(=O)c2cccc(N3CCCNCC3)n2)C1
Result block: 140 to 142 °C

Query block: Same thing, different molecule: Cc1c(F)cccc1C1CCN(C(=O)c2cccc(N3CCN(C)CC3)n2)CC1
Result block: 128.6 to 129.2 °C

Query block: Same thing, different molecule: Cc1ccccc1O[C@@H]1CCN(C(=O)c2cccc(N3CCCNCC3)n2)C1
Result block: 102 to 104 °C
